biological target: T1, human CD137-Fc (human, biotin-labeled); experiment: bead ELISA, IgG on biotinylated antigen, luminescence;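 also: biotinylated antigen captured on streptavidin magnetic beads, then incubated with purified IgG at 50 ng/µL for 1 h at room temperature before detection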
T1 construct: if 90 already holds the Fc, drop the second piece; also called biotin-labeled human CD137 fused to human IgG1 Fc fragment; biotin-human CD137-Fc; not shown: human IgG1 Fc fragment
T1 sequence (chain, as listed by the source): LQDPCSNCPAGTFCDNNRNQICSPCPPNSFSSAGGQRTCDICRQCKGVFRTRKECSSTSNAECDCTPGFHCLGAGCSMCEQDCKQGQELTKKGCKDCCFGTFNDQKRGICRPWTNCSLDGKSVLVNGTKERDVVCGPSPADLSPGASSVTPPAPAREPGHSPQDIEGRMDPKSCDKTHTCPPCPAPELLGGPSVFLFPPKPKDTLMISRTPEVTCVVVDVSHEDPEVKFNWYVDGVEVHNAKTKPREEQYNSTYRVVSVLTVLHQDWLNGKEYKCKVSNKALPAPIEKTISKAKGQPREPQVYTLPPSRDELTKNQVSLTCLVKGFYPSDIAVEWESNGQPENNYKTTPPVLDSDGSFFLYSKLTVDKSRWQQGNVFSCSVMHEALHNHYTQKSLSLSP
RECORDED_METRIC: S/N ratio (human CD137-Fc/Fc)
Form field (numeric): enter value without unit.

DXDU01_3#094 (antibody, V domains shown, Human IgG1; light chain GLS3000 (kappa); also called dBBDu121) VH: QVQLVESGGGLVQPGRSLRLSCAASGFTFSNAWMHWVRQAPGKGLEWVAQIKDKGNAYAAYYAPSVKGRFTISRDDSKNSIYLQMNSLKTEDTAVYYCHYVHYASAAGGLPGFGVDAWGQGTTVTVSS VL: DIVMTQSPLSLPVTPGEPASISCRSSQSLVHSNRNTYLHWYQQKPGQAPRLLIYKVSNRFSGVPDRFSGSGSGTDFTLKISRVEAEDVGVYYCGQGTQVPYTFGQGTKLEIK | 10.2
DADU01_3#018 (antibody, V domains shown, Human IgG1; light chain GLS3000 (kappa); also called dBBDu123) VH: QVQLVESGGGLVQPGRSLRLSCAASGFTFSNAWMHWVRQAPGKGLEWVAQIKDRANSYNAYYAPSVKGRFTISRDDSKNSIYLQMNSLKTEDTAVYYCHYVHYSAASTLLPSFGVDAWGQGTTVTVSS VL: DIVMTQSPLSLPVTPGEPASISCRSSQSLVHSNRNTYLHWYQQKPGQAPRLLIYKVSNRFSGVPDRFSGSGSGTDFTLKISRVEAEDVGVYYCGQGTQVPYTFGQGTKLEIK | 17.3

Give the reported value of S/N ratio (human CD137-Fc/Fc) for this record: DXDU01_3#019 (antibody, V domains shown, Human IgG1; light chain GLS3000 (kappa); also called dBBDu125) VH: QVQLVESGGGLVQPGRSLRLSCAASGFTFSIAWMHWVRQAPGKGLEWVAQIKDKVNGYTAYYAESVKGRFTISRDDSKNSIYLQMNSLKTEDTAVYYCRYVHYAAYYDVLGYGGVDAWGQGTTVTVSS VL: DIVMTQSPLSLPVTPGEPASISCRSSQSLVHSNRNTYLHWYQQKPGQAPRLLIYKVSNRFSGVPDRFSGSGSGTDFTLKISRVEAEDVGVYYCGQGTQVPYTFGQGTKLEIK
23.8

Give the reported value of S/N ratio (human CD137-Fc/Fc) for this record: DADU01_3#001 (antibody, V domains shown, Human IgG1; light chain GLS3000 (kappa); also called dBBDu126; dBBDu_126) VH: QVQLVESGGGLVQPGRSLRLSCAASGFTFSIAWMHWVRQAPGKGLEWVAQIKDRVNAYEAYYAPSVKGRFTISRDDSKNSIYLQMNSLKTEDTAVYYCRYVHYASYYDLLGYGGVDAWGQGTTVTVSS VL: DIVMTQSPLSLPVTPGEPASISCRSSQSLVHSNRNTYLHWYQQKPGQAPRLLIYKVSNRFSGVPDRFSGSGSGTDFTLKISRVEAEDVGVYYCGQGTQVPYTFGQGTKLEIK
54.1

Give the reported value of S/N ratio (human CD137-Fc/Fc) for this record: DADU01_3#002 (antibody, V domains shown, Human IgG1; light chain GLS3000 (kappa); also called dBBDu124) VH: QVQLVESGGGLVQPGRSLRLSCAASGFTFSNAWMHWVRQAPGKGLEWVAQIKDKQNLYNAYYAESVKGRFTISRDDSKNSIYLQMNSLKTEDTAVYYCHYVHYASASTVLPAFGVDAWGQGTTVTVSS VL: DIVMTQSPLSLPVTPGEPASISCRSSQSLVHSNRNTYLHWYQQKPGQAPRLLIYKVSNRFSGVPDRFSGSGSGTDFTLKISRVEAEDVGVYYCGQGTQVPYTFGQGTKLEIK
20.3

Give the reported value of S/N ratio (human CD137-Fc/Fc) for this record: DXDU01_3#072 (antibody, V domains shown, Human IgG1; light chain GLS3000 (kappa); also called dBBDu122) VH: QVQLVESGGGLVQPGRSLRLSCAASGFTFSNAWMHWVRQAPGKGLEWVAQIKDRSQLYAAYYAPSVKGRFTISRDDSKNSIYLQMNSLKTEDTAVYYCHYVHYASASTVLGAYGVDAWGQGTTVTVSS VL: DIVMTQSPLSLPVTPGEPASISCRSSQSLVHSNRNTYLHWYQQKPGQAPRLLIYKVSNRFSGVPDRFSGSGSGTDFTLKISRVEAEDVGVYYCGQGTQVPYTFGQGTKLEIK
6.58
